# System: MDA-MB-231 complex spheroids, growth inhibition
# assay method text: Anticancer human tumor MDA-MB-231 cell line growth inhibition [Asc];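 note: spheroids exposed to compounds for 7 days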
# recorded conditions: second compound 1 µM; first compound 0.0949 µM; hits give low values
Let's look at some compounds and their measured viability, T/C.
Numbers only; they are read as %.

{"compound": "Cc1nc(N2CCC3(CC2)COC(C)C3N)c(CO)nc1Sc1ccnc(N)c1Cl (stereo unspecified) + CNC(C)C(=O)NC1CN(S(=O)(=O)c2cccc(S(=O)(=O)N3CCC4CCC(C(=O)NC(c5ccccc5)c5ccccc5)N4C(=O)C(NC(=O)C(C)NC)C3)c2)CCC2CCC(C(=O)NC(c3ccccc3)c3ccccc3)N2C1=O", "recorded endpoint": "viability, T/C", "endpoint result": 99.9}
{"compound": "Cc1nc(N2CCC3(CC2)COC(C)C3N)c(CO)nc1Sc1ccnc(N)c1Cl (stereo unspecified) + Cc1c(S(C)(=O)=O)c(-c2cc(F)cc(N3CCN(c4ccc(NS(=O)(=O)c5ccc(NC(CCN6CCC(C(=O)OCCCP(=O)(O)O)CC6)CSc6ccccc6)c(S(=O)(=O)C(F)(F)F)c5)cc4)CC3)c2)c(-c2ccc(Cl)cc2)n1C(C)C", "recorded endpoint": "viability, T/C", "endpoint result": 81.6}
{"compound": "CCN1C(C(=O)NC23CCC(C(=O)O)(CC2)CC3)C(c2cccc(Cl)c2F)C2(C(=O)Nc3cc(Cl)ccc32)C12CCCCC2 (stereo unspecified) + Cc1c(S(C)(=O)=O)c(-c2cc(F)cc(N3CCN(c4ccc(NS(=O)(=O)c5ccc(NC(CCN6CCC(C(=O)OCCCP(=O)(O)O)CC6)CSc6ccccc6)c(S(=O)(=O)C(F)(F)F)c5)cc4)CC3)c2)c(-c2ccc(Cl)cc2)n1C(C)C", "recorded endpoint": "viability, T/C", "endpoint result": 104}
{"compound": "NC(=O)C(=Cn1cnc(-c2cc(C(F)(F)F)cc(C(F)(F)F)c2)n1)c1cncnc1 + Cc1c(S(C)(=O)=O)c(-c2cc(F)cc(N3CCN(c4ccc(NS(=O)(=O)c5ccc(NC(CCN6CCC(C(=O)OCCCP(=O)(O)O)CC6)CSc6ccccc6)c(S(=O)(=O)C(F)(F)F)c5)cc4)CC3)c2)c(-c2ccc(Cl)cc2)n1C(C)C", "recorded endpoint": "viability, T/C", "endpoint result": 30.2}

The reported value for NC(=O)C(=Cn1cnc(-c2cc(C(F)(F)F)cc(C(F)(F)F)c2)n1)c1cncnc1 + CNC(C)C(=O)NC1CN(S(=O)(=O)c2cccc(S(=O)(=O)N3CCC4CCC(C(=O)NC(c5ccccc5)c5ccccc5)N4C(=O)C(NC(=O)C(C)NC)C3)c2)CCC2CCC(C(=O)NC(c3ccccc3)c3ccccc3)N2C1=O in terms of viability, T/C is 0.91

Lab note: CCN1C(C(=O)NC23CCC(C(=O)O)(CC2)CC3)C(c2cccc(Cl)c2F)C2(C(=O)Nc3cc(Cl)ccc32)C12CCCCC2 (stereo unspecified) + CNC(C)C(=O)NC1CN(S(=O)(=O)c2cccc(S(=O)(=O)N3CCC4CCC(C(=O)NC(c5ccccc5)c5ccccc5)N4C(=O)C(NC(=O)C(C)NC)C3)c2)CCC2CCC(C(=O)NC(c3ccccc3)c3ccccc3)N2C1=O gave viability, T/C of 0.88

----------
Catalogue of viability, T/C values
# System: MDA-MB-231 complex spheroids, growth inhibition
# assay method text: Anticancer human tumor MDA-MB-231 cell line growth inhibition [Asc];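 note: spheroids exposed to compounds for 7 days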
# recorded conditions: second compound 1 µM; first compound 1 µM; hits give low values
Your answer should be a plain number; it is taken to be in %.

Illustrative cases are given below, each with its answer.
{"compound": "C#Cc1c(F)ccc2cc(O)cc(-c3ncc4c(N5CC6CCC(C5)N6)nc(OCC56CCCN5CC(F)C6)nc4c3F)c12 (centres undefined) + CNC(C)C(=O)NC1CN(S(=O)(=O)c2cccc(S(=O)(=O)N3CCC4CCC(C(=O)NC(c5ccccc5)c5ccccc5)N4C(=O)C(NC(=O)C(C)NC)C3)c2)CCC2CCC(C(=O)NC(c3ccccc3)c3ccccc3)N2C1=O", "endpoint result": 68.8}
{"compound": "C#Cc1c(F)ccc2cc(O)cc(-c3ncc4c(N5CC6CCC(C5)N6)nc(OCC56CCCN5CC(F)C6)nc4c3F)c12 (centres undefined) + Cc1c(S(C)(=O)=O)c(-c2cc(F)cc(N3CCN(c4ccc(NS(=O)(=O)c5ccc(NC(CCN6CCC(C(=O)OCCCP(=O)(O)O)CC6)CSc6ccccc6)c(S(=O)(=O)C(F)(F)F)c5)cc4)CC3)c2)c(-c2ccc(Cl)cc2)n1C(C)C", "endpoint result": 74.2}
{"compound": "O=C(c1cc(Cc2n[nH]c(=O)c3ccccc23)ccc1F)N1CCN(C(=O)C2CC2)CC1 + Cc1c(S(C)(=O)=O)c(-c2cc(F)cc(N3CCN(c4ccc(NS(=O)(=O)c5ccc(NC(CCN6CCC(C(=O)OCCCP(=O)(O)O)CC6)CSc6ccccc6)c(S(=O)(=O)C(F)(F)F)c5)cc4)CC3)c2)c(-c2ccc(Cl)cc2)n1C(C)C", "endpoint result": 85}

Consider now this further compound.
Note to self: viability, T/C recorded for CCN1CCN(Cc2ccc(Nc3ncc(F)c(-c4cc(F)c5nc(C)n(C(C)C)c5c4)n3)nc2)CC1 + CNC(C)C(=O)NC1CN(S(=O)(=O)c2cccc(S(=O)(=O)N3CCC4CCC(C(=O)NC(c5ccccc5)c5ccccc5)N4C(=O)C(NC(=O)C(C)NC)C3)c2)CCC2CCC(C(=O)NC(c3ccccc3)c3ccccc3)N2C1=O was 1.35

----------
Reported viability, T/C values for a set of molecules
# Tested on: MDA-MB-231 complex spheroids, growth inhibition
# assay method text: Anticancer human tumor MDA-MB-231 cell line growth inhibition [Asc];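 note: spheroids exposed to compounds for 7 days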
# recorded conditions: second compound 0.316 µM; first compound 0.316 µM; hits give low values
Give the value, in units of %, as a plain number.

{"molecule": "C=CC(=O)N1CCN(c2nc(=O)n(-c3c(C)ccnc3C(C)C)c3nc(-c4c(O)cccc4F)c(F)cc23)C(C)C1 (configuration not stated) + Cc1c(S(C)(=O)=O)c(-c2cc(F)cc(N3CCN(c4ccc(NS(=O)(=O)c5ccc(NC(CCN6CCC(C(=O)OCCCP(=O)(O)O)CC6)CSc6ccccc6)c(S(=O)(=O)C(F)(F)F)c5)cc4)CC3)c2)c(-c2ccc(Cl)cc2)n1C(C)C", "viability, T/C / %": 111}

Consider the record given below.
Summary for this molecule, CCN1CCN(Cc2ccc(Nc3ncc(F)c(-c4cc(F)c5nc(C)n(C(C)C)c5c4)n3)nc2)CC1 + Cc1c(S(C)(=O)=O)c(-c2cc(F)cc(N3CCN(c4ccc(NS(=O)(=O)c5ccc(NC(CCN6CCC(C(=O)OCCCP(=O)(O)O)CC6)CSc6ccccc6)c(S(=O)(=O)C(F)(F)F)c5)cc4)CC3)c2)c(-c2ccc(Cl)cc2)n1C(C)C : viability, T/C is 49.7

----------
# Tested on: MDA-MB-231 complex spheroids, growth inhibition
# assay method text: Anticancer human tumor MDA-MB-231 cell line growth inhibition [Asc]; active = viability on the fitted dose curve at most 10% of control; inactive = the rest;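 note: spheroids exposed to compounds for 7 days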
# recorded conditions: second compound 0.316 µM; first compound 0.00949 µM
Thanks in advance; please answer with one of these: class 1 (active), class 0 (inactive)

{"compound": "NC(=O)C(=Cn1cnc(-c2cc(C(F)(F)F)cc(C(F)(F)F)c2)n1)c1cncnc1 + Cc1c(S(C)(=O)=O)c(-c2cc(F)cc(N3CCN(c4ccc(NS(=O)(=O)c5ccc(NC(CCN6CCC(C(=O)OCCCP(=O)(O)O)CC6)CSc6ccccc6)c(S(=O)(=O)C(F)(F)F)c5)cc4)CC3)c2)c(-c2ccc(Cl)cc2)n1C(C)C", "class name": "class 0"}

Q: State the result this test recorded for NC(=O)C(=Cn1cnc(-c2cc(C(F)(F)F)cc(C(F)(F)F)c2)n1)c1cncnc1 + CNC(C)C(=O)NC1CN(S(=O)(=O)c2cccc(S(=O)(=O)N3CCC4CCC(C(=O)NC(c5ccccc5)c5ccccc5)N4C(=O)C(NC(=O)C(C)NC)C3)c2)CCC2CCC(C(=O)NC(c3ccccc3)c3ccccc3)N2C1=O .
A: class 1

----------
# System: MDA-MB-231 complex spheroids, growth inhibition
# assay method text: Anticancer human tumor MDA-MB-231 cell line growth inhibition [Asc];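 note: spheroids exposed to compounds for 7 days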
# recorded conditions: second compound 0.1 µM; first compound 0.0316 µM; hits give low values
recorded endpoint: viability, T/C (%)
Write the value in % as a bare number.

Some entries whose results are on file:
{"molecule": "O=C(c1ccc(F)c(F)c1Nc1ccc(I)cc1F)N1CC(O)([C@@H]2CCCCN2)C1 + CNC(C)C(=O)NC1CN(S(=O)(=O)c2cccc(S(=O)(=O)N3CCC4CCC(C(=O)NC(c5ccccc5)c5ccccc5)N4C(=O)C(NC(=O)C(C)NC)C3)c2)CCC2CCC(C(=O)NC(c3ccccc3)c3ccccc3)N2C1=O", "uom": "%", "viability, T/C": 0.88}
{"molecule": "CNC(C)C(=O)NC1CN(S(=O)(=O)c2cccc(S(=O)(=O)N3CCC4CCC(C(=O)NC(c5ccccc5)c5ccccc5)N4C(=O)C(NC(=O)C(C)NC)C3)c2)CCC2CCC(C(=O)NC(c3ccccc3)c3ccccc3)N2C1=O (stereo not drawn) + Cc1c(S(C)(=O)=O)c(-c2cc(F)cc(N3CCN(c4ccc(NS(=O)(=O)c5ccc(NC(CCN6CCC(C(=O)OCCCP(=O)(O)O)CC6)CSc6ccccc6)c(S(=O)(=O)C(F)(F)F)c5)cc4)CC3)c2)c(-c2ccc(Cl)cc2)n1C(C)C", "uom": "%", "viability, T/C": 0.9}

Then this molecule:
Recorded viability, T/C for C#Cc1c(F)ccc2cc(O)cc(-c3ncc4c(N5CC6CCC(C5)N6)nc(OCC56CCCN5CC(F)C6)nc4c3F)c12 (stereo not drawn) + Cc1c(S(C)(=O)=O)c(-c2cc(F)cc(N3CCN(c4ccc(NS(=O)(=O)c5ccc(NC(CCN6CCC(C(=O)OCCCP(=O)(O)O)CC6)CSc6ccccc6)c(S(=O)(=O)C(F)(F)F)c5)cc4)CC3)c2)c(-c2ccc(Cl)cc2)n1C(C)C on MDA-MB-231 complex spheroids, growth inhibition was 96.6
